Values compiled from ChEMBL document CHEMBL3243952.

# measured_target: Pyridoxal kinase (Homo sapiens, UniProt O00764)
# Sequence (O00764 whole entry): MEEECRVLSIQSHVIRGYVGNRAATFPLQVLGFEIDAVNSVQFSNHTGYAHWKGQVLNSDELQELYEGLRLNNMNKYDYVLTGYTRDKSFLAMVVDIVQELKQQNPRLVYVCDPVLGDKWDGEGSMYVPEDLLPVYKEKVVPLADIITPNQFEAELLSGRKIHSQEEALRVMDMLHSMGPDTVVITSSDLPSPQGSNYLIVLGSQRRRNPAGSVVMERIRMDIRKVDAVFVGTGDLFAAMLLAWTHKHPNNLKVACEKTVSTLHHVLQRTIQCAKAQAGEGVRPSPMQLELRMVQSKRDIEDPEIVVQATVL
pKi: −log10 of the molar value.
value_kind: pKi

[[record]]
compound_string = "C=Cc1ncc(CO)c(C)c1O.Cl"
measured_target = "Pyridoxal kinase (Homo sapiens, UniProt O00764)"
measured = 4.17

